// provenance: PubChem BioAssay (NCATS)

- assayOverview: qHTS Assay for Identifying Gametocytocidal Compounds (AID 743244);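 further: on the % scale 0 is the no-effect control and ±100 the full control effect; actives lower the fluorescent signal which means gametocytes are killed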
- conditionNotes: P. falciparum 3D7 stage III-V gametocytes, alamarBlue, 72 h; hits give low values
Results filed as inconclusive are left out. Activity calls are given as the source filed them. The call rests on the fitted dose curve; in most records, active means well fitted curve in the direction sought with a large enough effect; inconclusive means small, poorly fitted or top-dose-only effect, or another doubt; inactive means no such curve, though single readings can be large or run the other way.
Task for the reader: assign each of the following compounds its reported max response.

Consider the worked cases shown below.
| compound | measuredAttribute | measured |
| --- | --- | --- |
| O=C1[C@H](CC[C@H](O)c2ccc(F)cc2)[C@@H](c2ccc(O)cc2)N1c1ccc(F)cc1 | max response | 4.75% (inactive) |
| c1ccc(CC2=NCCN2)cc1 | max response | -3.06% (inactive) |
| C/C=C/C=N/NC(=O)c1ccncc1 | max response | -5.06% (inactive) |
| OC(C#CCN1CCCC1)(c1ccccc1)c1ccccc1 | max response | -3.1% (inactive) |
| CCN(CC)CCOC(=O)C(Cc1cccc2ccccc12)CC1CCCO1 (stereo not drawn) | max response | 7.43% (inactive) |

Give max response for each of the items listed below.
1. C[C@H]1O[C@@H](O[C@H]2CC[C@@]3(C)[C@H](CC[C@@H]4[C@@H]3C[C@@H](O)[C@]3(C)[C@@H](C5=CC(=O)OC5)CC[C@]43O)C2)C[C@H](O)[C@@H]1O[C@H]1C[C@H](O)[C@H](O[C@H]2C[C@H](O)[C@H](O[C@@H]3O[C@H](CO)[C@@H](O)[C@H](O)[C@H]3O)[C@@H](C)O2)[C@@H](C)O1
2. CC(C)n1c(/C=C/[C@@H](O)C[C@@H](O)CC(=O)O)c(-c2ccc(F)cc2)c2ccccc21
3. Nc1ccc(C(=O)NCC(=O)O)cc1

["-0.158% (inactive)", "-9.47% (inactive)", "6.7% (inactive)"]
